- testedOn: CquiOR2 + CquiOR7 (Culex quinquefasciatus, UniProt D5LMR6)
- Sequence (Q309I4 entry or part of it): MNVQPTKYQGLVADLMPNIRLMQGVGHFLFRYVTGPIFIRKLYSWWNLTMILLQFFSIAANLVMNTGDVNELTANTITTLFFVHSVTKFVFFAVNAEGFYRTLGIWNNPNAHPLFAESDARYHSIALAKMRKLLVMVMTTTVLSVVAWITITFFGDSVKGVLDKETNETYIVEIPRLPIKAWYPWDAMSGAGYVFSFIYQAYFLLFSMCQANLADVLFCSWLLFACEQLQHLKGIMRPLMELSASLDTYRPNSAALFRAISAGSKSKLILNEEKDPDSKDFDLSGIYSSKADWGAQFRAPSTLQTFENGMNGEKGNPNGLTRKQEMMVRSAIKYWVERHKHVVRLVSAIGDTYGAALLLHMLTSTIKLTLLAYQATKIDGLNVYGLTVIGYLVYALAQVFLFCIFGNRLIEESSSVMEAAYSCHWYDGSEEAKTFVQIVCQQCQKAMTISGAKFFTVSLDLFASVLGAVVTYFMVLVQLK
- Sequence (D5LMR6 entry or part of it): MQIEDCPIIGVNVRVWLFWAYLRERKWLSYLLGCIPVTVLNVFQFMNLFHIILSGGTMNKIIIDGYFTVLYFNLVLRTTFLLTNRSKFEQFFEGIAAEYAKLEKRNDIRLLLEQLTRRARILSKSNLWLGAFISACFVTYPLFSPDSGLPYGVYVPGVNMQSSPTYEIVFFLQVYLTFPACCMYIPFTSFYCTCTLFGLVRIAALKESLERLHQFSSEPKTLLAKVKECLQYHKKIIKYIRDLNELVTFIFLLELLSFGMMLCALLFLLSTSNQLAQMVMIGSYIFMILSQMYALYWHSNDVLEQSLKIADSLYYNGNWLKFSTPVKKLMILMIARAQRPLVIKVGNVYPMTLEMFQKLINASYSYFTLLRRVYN
- assayText: Two-electrode voltage clamp of Xenopus oocytes expressing CquiOR2 + CquiOR7
- Assay type: cell-based
- conditionInfo: 20 s applications, Hill fit; mean ± SEM, 5–16 separate oocytes; read-out: EC50
# pEC50 per entry
The meaning of pEC50 here: minus log10 of the concentration in molar units.

So what does the record say about pEC50 for Cc1cc2ccccc2[nH]1 [2-Methylindole] ?
5.12

Look up pEC50: Cc1ccc2cc[nH]c2c1 [6-Methylindole]
5.52

# input compound: Cc1c[nH]c2ccccc12 [3-Methylindole] ; wanted: its pEC50
4.70
